- TARGET DESC: Metabotropic glutamate receptor 2 (Homo sapiens, UniProt Q14416)
- Sequence (Q14416 whole entry): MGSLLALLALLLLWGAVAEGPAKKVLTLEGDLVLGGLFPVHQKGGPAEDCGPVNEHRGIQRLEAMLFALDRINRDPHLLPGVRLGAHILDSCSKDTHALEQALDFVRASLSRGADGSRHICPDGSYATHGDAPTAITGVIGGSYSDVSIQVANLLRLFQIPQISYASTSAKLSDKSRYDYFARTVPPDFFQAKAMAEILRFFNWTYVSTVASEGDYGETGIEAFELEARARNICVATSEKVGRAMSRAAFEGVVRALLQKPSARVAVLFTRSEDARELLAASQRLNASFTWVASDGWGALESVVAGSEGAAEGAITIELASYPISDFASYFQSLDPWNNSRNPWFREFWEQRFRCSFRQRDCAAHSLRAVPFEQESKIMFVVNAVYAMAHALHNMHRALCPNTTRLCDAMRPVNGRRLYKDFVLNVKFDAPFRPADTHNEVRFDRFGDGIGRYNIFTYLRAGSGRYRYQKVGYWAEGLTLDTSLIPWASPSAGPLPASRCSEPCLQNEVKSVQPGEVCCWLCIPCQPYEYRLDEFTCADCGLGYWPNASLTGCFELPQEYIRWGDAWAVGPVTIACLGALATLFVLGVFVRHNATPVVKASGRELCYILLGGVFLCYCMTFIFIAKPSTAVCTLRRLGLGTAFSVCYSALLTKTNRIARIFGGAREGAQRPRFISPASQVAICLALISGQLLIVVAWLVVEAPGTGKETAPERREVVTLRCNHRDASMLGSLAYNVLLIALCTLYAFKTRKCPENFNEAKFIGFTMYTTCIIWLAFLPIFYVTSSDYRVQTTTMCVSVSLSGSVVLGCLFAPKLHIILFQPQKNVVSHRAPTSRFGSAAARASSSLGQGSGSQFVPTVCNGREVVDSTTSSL
- TEST METHOD NOTES: Effective concentration for binding to human metabotropic glutamate receptor 2 as determined by GTPgammaS assay
pEC50: −log10 of the molar value.
Rule: pEC50 under 6 gives Not satisfied, otherwise Satisfied.

Challenge: // inclusive: pEC50 at least 6? input: `COc1ccccc1Oc1ccc(N(Cc2cccnc2)S(=O)(=O)CC(F)(F)F)cc1`
Response given: Not satisfied

Challenge: // inclusive: pEC50 at least 6? input: `CC(C)CC(=O)c1ccc(OCCCCOc2ccc(-c3nn[nH]n3)cc2)c(Br)c1O`
Response given: Satisfied

Challenge: Check the entry `CCCc1c(OCCCCOc2ccc(-c3nn[nH]n3)cc2)ccc(C(=O)CC(C)C)c1O` : does pEC50 equal or exceed 6?
Response given: Satisfied
